B1: TSPAN10 (parent)
chain: EGCGPPLRRWLRANLAASGGYAIA

- Variants of: B1
- ASSAY_DETAILS: protein stability index of a GFP-peptide fusion (GPS, HEK-293T) (PSI 1-6); higher = more stable;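 note: lentivirally expressed fusions sorted by FACS into six bins by GFP to DsRed ratio, PSI derived from sequencing read proportions per bin multiplied by bin number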
- CONDITION: c terminus: a fixed tail appended
Class Yes: protein stability index at least 2. Class No: protein stability index below 2.

>>> qualitative_label("EGCGPPLRRWLCANLAASGGYAIA [R12C]")
"Yes"
>>> qualitative_label("EGCGPPLRRWLRLNLAASGGYAIA [A13L]")
"Yes"
>>> qualitative_label("EGCGPPLRRWLRANLAASGGYAIL [A24L]")
"Yes"
>>> qualitative_label("EGCGPPLRRWLQANLAASGGYAIA [R12Q]")
"Yes"
>>> qualitative_label("EGTGPPLRRWLRANLAASGGYAIA [C3T]")
"No"
>>> qualitative_label("EGCFPPLRRWLRANLAASGGYAIA [G4F]")
"No"
>>> qualitative_label("EGCGPPLRRWKRANLAASGGYAIA [L11K]")
"Yes"
>>> qualitative_label("EGCGPPLRRWLRANLADSGGYAIA [A17D]")
"Yes"
>>> qualitative_label("EGCGPPLRRWLRANLAASGGYAII [A24I]")
"Yes"
>>> qualitative_label("EGCGPPLRRWLRANLAASGGQAIA [Y21Q]")
"Yes"
>>> qualitative_label("EGCGPSLRRWLRANLAASGGYAIA [P6S]")
"No"
>>> qualitative_label("EGCGPPLRRWLGANLAASGGYAIA [R12G]")
"No"
>>> qualitative_label("EGCGPPLRGWLRANLAASGGYAIA [R9G]")
"No"
>>> qualitative_label("EGCGPPLRRWLRANLLASGGYAIA [A16L]")
"No"
>>> qualitative_label("EHCGPPLRRWLRANLAASGGYAIA [G2H]")
"Yes"
>>> qualitative_label("EGCGPPLRRWLRANLAASGGYTIA [A22T]")
"No"
>>> qualitative_label("EGCSPPLRRWLRANLAASGGYAIA [G4S]")
"Yes"
>>> qualitative_label("EGCGPPLRRWLRANPAASGGYAIA [L15P]")
"Yes"
>>> qualitative_label("EGCGPPLRRWLRANLAASIGYAIA [G19I]")
"No"
>>> qualitative_label("EGCGPPLRLWLRANLAASGGYAIA [R9L]")
"No"
